Numbers sourced from a melting point compilation (Tetko et al.).

Reported melting point values for a set of molecules
Conditions: a range is the spread between reports
readout label: melting point

- molecule: "c1ccc(P(CP(c2ccccc2)c2ccccc2)c2ccccc2)cc1"
  experimental value: "119 to 121 °C"
- molecule: "Oc1cccc(Br)c1"
  experimental value: "30 to 33 °C"
- molecule: "CC=O"
  experimental value: "-128 to -123 °C"
- molecule: "O=C1c2ccccc2Cc2ccccc21"
  experimental value: "155 to 157 °C"
- molecule: "O=C(O)C(Cl)Br (stereo unspecified)"
  experimental value: "27 to 31.5 °C"
- molecule: "NC(=O)c1ccccc1F"
  experimental value: "116 to 118 °C"
- molecule: "O=Cc1c(O)ccc2ccccc12"
  experimental value: "79 to 83 °C"
- molecule: "O=C(O)c1c(F)ccc(F)c1F"
  experimental value: "130 to 131 °C"
- molecule: "O=C(O)Cc1ccc(O)cc1"
  experimental value: "149 to 152 °C"
- molecule: "O=C(Cl)CCC(=O)Cl"
  experimental value: "17 to 20 °C"
- molecule: "O=C1OCc2ccccc21"
  experimental value: "74 to 75 °C"
- molecule: "CCC(O)(CC)CC"
  experimental value: "-13 to -12.5 °C"
- molecule: "CCC1(C)CC1"
  experimental value: "-130 °C"
- molecule: "O=C1C(=O)c2ccccc2-c2ccccc21"
  experimental value: "206 to 210 °C"
- molecule: "Oc1ccc(-c2ccc(O)cc2)cc1"
  experimental value: "278 to 283 °C"
- molecule: "CCCCCCCCCCCCN(C)C"
  experimental value: "-20 to -15 °C"
- molecule: "O=C1OC2(c3ccc(O)cc3Oc3cc(O)ccc32)c2ccccc21"
  experimental value: "315 to 320 °C"
- molecule: "OCC(O)c1ccccc1 (stereo unspecified)"
  experimental value: "67 to 68 °C"
- molecule: "O=C(O)c1cccc(F)c1"
  experimental value: "123 to 124 °C"
- molecule: "CCn1c2ccccc2c2ccccc21"
  experimental value: "68 to 69 °C"
- molecule: "COc1cc(OC)cc(C(=O)O)c1"
  experimental value: "184 to 186 °C"
- molecule: "CCCCCCCCCCCCCCCCCCCC"
  experimental value: "36 to 37 °C"
- molecule: "c1ccc2nc(-c3ccc4ccccc4n3)ccc2c1"
  experimental value: "194 to 195 °C"
- molecule: "BrCCCCCCCCBr"
  experimental value: "15.5 to 16 °C"
- molecule: "NS(=O)(=O)Cc1noc2ccccc12"
  experimental value: "162 °C"
- molecule: "OC1CCCCC1O (stereo unspecified)"
  experimental value: "100 to 102 °C"

----------
Conditions: a range is the spread between reports
readout label: melting point

- compound: "CC(C)(C(=O)O)c1ccccc1"
  experimental value: "79 to 81 °C"
- compound: "CCc1ccccc1CC"
  experimental value: "-31.2 to -31 °C"
- compound: "COc1ccc(NC(=O)N(C)C)cc1Cl"
  experimental value: "126 to 127 °C"
- compound: "Cc1ccc(C(C)C)cc1"
  experimental value: "-68.9 to -68 °C"
- compound: "ClCC(Cl)CCl"
  experimental value: "-15 to -14 °C"
- compound: "OCCN1CCCCC1"
  experimental value: "16 to 17.9 °C"
- compound: "CCN1CCNC(=O)C1=O"
  experimental value: "108 to 110 °C"
- compound: "CC1(C)CC(=O)CC(=O)C1"
  experimental value: "148 °C"
- compound: "CC(C)(C)N=C=S"
  experimental value: "10 to 10.5 °C"
- compound: "OCc1cccc(CO)c1"
  experimental value: "57 to 58 °C"
- compound: "Nc1c(Br)cc(Br)cc1Br"
  experimental value: "120 to 122 °C"
- compound: "CCS(=O)(=O)CC"
  experimental value: "72 to 73.5 °C"
- compound: "Cc1ccc([N+](=O)[O-])c(C)c1"
  experimental value: "6 to 9 °C"
- compound: "Clc1cc(Cl)c(-c2ccccc2)cc1Cl"
  experimental value: "76 to 78 °C"
- compound: "O=C1CCC(c2ccccc2)CC1"
  experimental value: "79.5 to 80 °C"
- compound: "C=CCCC=C"
  experimental value: "-141 °C"
- compound: "O=C1c2ccccc2C(=O)N1CCCBr"
  experimental value: "74 to 75 °C"
- compound: "CCCC1CCCC1"
  experimental value: "-117 °C"
- compound: "Cc1cc(Cl)nc(Cl)c1C#N"
  experimental value: "110 to 113 °C"
- compound: "CC(C)(C)c1ccc(Br)cc1"
  experimental value: "16 to 19 °C"
- compound: "ClCCCCl"
  experimental value: "-100 to -99.5 °C"
- compound: "COC(=O)c1ccc(Cl)c([N+](=O)[O-])c1"
  experimental value: "80 to 83 °C"
- compound: "Cc1cccc(C)c1N"
  experimental value: "8 to 12 °C"
- compound: "Cc1c(F)c(F)c(F)c(F)c1F"
  experimental value: "-30 to -29.8 °C"
- compound: "O=C(O)Cc1ccccc1Cl"
  experimental value: "95 to 96 °C"
- compound: "O=C(O)CC[N+](=O)[O-]"
  experimental value: "62 to 64 °C"
- compound: "CCOCC"
  experimental value: "-116 °C"
- compound: "O=Cc1ccccc1C=O"
  experimental value: "56 to 56.5 °C"
- compound: "CCOC(=O)c1cccc([N+](=O)[O-])c1"
  experimental value: "42 to 47 °C"
- compound: "COC(=O)c1ccc(OC)c(OC)c1"
  experimental value: "59 to 60.8 °C"
- compound: "CCCCCCCCCCCC(=O)OC"
  experimental value: "5 to 5.2 °C"
- compound: "O[Si](c1ccccc1)(c1ccccc1)c1ccccc1"
  experimental value: "152 to 155 °C"
- compound: "Cc1cc(C)c(C)c(Br)c1C"
  experimental value: "56 to 60 °C"
- compound: "CC(C)c1ccccc1O"
  experimental value: "15 to 16 °C"
- compound: "O=C(O)Cc1ccc(C(F)(F)F)cc1"
  experimental value: "80 to 84 °C"
- compound: "CCCCCCCCCCCCOC(=O)c1cc(O)c(O)c(O)c1"
  experimental value: "96.5 to 97 °C"
- compound: "N#CI"
  experimental value: "146 to 147 °C"
- compound: "Oc1ccc(Oc2ccccc2)cc1"
  experimental value: "80 to 84 °C"
- compound: "N#Cc1ccccc1N"
  experimental value: "47 to 51 °C"
- compound: "CCCC(=O)OCC"
  experimental value: "-98 to -93 °C"
- compound: "CCCCC(CC)COC(=O)c1ccccc1C(=O)OCC(CC)CCCC (centres undefined)"
  experimental value: "-55 to -50 °C"
- compound: "CC(=O)Nc1ccc(C(=O)O)cc1"
  experimental value: "256 to 260 °C"
- compound: "CCC(=O)CC"
  experimental value: "-40 to -39 °C"
- compound: "CC1=C(C)CCC1"
  experimental value: "-90.4 to -90 °C"
- compound: "C(=C\\c1ccccc1)/c1ccccc1"
  experimental value: "123 to 126 °C"
- compound: "CCOC(=O)/C=C/C(=O)OCC"
  experimental value: "0 to 2 °C"
- compound: "Nc1ccc(F)cc1"
  experimental value: "-2 to -0.8 °C"
- compound: "COc1ccc(OC)cc1"
  experimental value: "56 to 60 °C"
- compound: "CCOC(=O)CNc1ccccc1"
  experimental value: "57 to 58 °C"
- compound: "Cc1ccccc1CCl"
  experimental value: "-2 to 2 °C"
- compound: "CCCCS(=O)(=O)CCCC"
  experimental value: "44 to 45 °C"
- compound: "CCC(=O)c1ccc(Br)cc1"
  experimental value: "46 to 48 °C"
- compound: "O=C1OCc2c(Cl)c(Cl)c(Cl)c(Cl)c21"
  experimental value: "208 to 210 °C"
- compound: "CC(C)(C)c1ccc(O)c(C(C)(C)C)c1"
  experimental value: "54.5 to 56.5 °C"
- compound: "ClC(Cl)=C(Cl)Cl"
  experimental value: "-22.3 to -22 °C"
- compound: "C=Cc1ccc(-c2ccccc2)cc1"
  experimental value: "116 to 119 °C"
- compound: "N#Cc1ccc(F)cc1"
  experimental value: "34.8 to 36 °C"
- compound: "COC(=O)c1cccc([N+](=O)[O-])c1"
  experimental value: "78 to 80 °C"
- compound: "Oc1ccc(NCc2ccccc2)cc1"
  experimental value: "84 to 88 °C"
